The measurements presented in this section are drawn from the supplement of paper PMC9262897.

Test system: E. coli TESEC Alr+ wild-type control
Assay: growth (OD600 after 10 h); higher = more growth (less inhibition)
Details: compound 0.1 mM; raw OD600 reference: median of DMSO wells 0.49, cell-free background 0.052
Counter-ions that a name gives are not always drawn.
Quick rule for you: growth at 0.5 or higher means Met, lower means Not met.

INSERT INTO assay_data (molecule, label) VALUES
  ('O=C(O)c1cccnc1Nc1cccc(C(F)(F)F)c1', 'Not met'),
  ('COc1ccc(C(=O)NCc2ccc(OCCN(C)C)cc2)cc1OC [Itopride]', 'Not met'),
  ('Nc1nc(=O)n([C@@H]2CS[C@H](CO)O2)cc1F [(-)-Emtricitabine]', 'Met'),
  ('CN(C)CCCN1c2ccccc2CCc2ccccc21 [Imipramine hydrochloride]', 'Not met'),
  ('Cc1nnc(SCC2=C(C(=O)O)N3C(=O)[C@@H](NC(=O)Cn4cnnn4)[C@H]3SC2)s1 [Cefazolin sodium salt]', 'Met'),
  ('CSc1ccc2c(c1)N(CCC1CCCCN1C)c1ccccc1S2 (stereo not drawn) [Thioridazine hydrochloride]', 'Not met'),
  ('O=C(O)CCCC[C@@H]1SC[C@@H]2NC(=O)N[C@@H]21', 'Met'),
  ('O=C(Nc1ccccc1)OCC(CN1CCCCC1)OC(=O)Nc1ccccc1 (stereo not drawn) [Diperodon hydrochloride]', 'Not met'),
  ('Cc1cc2cc3c(C)cc(=O)oc3c(C)c2o1', 'Not met'),
  ('CN(C)CCC=C1c2ccccc2C=Cc2ccccc21 [Cyclobenzaprine hydrochloride]', 'Met'),
  ('CC(C)c1nc(CN(C)C(=O)N[C@H](C(=O)N[C@@H](Cc2ccccc2)C[C@H](O)[C@H](Cc2ccccc2)NC(=O)OCc2cncs2)C(C)C)cs1', 'Not met'),
  ('CN[C@@H]1[C@@H](O)[C@@H](O[C@@H]2[C@@H](O)[C@H](O[C@H]3OC(CN)=CC[C@H]3N)[C@@H](N)C[C@H]2N)OC[C@]1(C)O [Sisomicin sulfate]', 'Not met'),
  ('Fc1ccc(C(c2ccc(F)cc2)N2CCN(C/C=C/c3ccccc3)CC2)cc1 [Flunarizine dihydrochloride]', 'Not met'),
  ('CC1(C)NC(=O)N(c2ccc([N+](=O)[O-])c(C(F)(F)F)c2)C1=O [Nilutamide]', 'Met'),
  ('NC(=O)OCC(COC(N)=O)c1ccccc1 [Felbamate]', 'Met'),
  ('O=C(O)c1ccccc1Nc1cccc(C(F)(F)F)c1', 'Not met'),
  ('N=C(N)NCC1COC2(CCCCC2)O1 (stereo not drawn) [Guanadrel sulfate]', 'Met'),
  ('O=C(COc1ccc(Cl)cc1)N1CCN(Cc2ccc3c(c2)OCO3)CC1 [Fipexide hydrochloride]', 'Not met');
